- Test system: Hep-G2 (human liver cancer)
- measurementProtocol: Cell proliferative assay (MTT), Hep-G2
- Format: cell-based
- experimentalSetup: Homo sapiens, HepG2, Hep-G2 cells, read-out: Proliferative Inhibition (IC50, µM) Hep-G2
measurementName: IC50

compound="COc1cc2nccc(Oc3ccc(NC(=O)C4(C(=O)Nc5ccc(F)cc5)CC4)cc3)c2cc1OC [XL184, Cabozantinib, reference compound]" measurementname=IC50 result="49.1 µM"
compound="CC(C)(C)OC(=O)N1CCc2c(sc3ncnc(Oc4ccc(NC(=O)C5(C(=O)Nc6ccc(F)cc6)CC5)cc4F)c23)C1 [Compound 13h]" measurementname=IC50 result="1.7 µM"
compound="COc1cc2ncnc(Oc3ccc(NC(=O)C4(C(=O)Nc5ccc(F)cc5)CCC4)cc3F)c2cc1OC [Compound 13c]" measurementname=IC50 result="49.1 µM"
compound=CNC(=O)c1cc(Oc2cccc(C(=O)Nc3cc(C(C)(C)C)nn3-c3ccccc3)c2)ccn1 measurementname=IC50 result="> 100 µM"
compound=COc1cc2ncnc(Oc3cccc(C(=O)Nc4cc(C(C)(C)C)nn4-c4ccccc4)c3)c2cc1OC measurementname=IC50 result="38.5 µM"
compound="COc1cc2ncnc(Oc3ccc(NC(=O)C(C)(C)C(=O)Nc4ccc(F)cc4)cc3F)c2cc1OC [Compound 13a]" measurementname=IC50 result="> 100 µM"
compound="CNC(=O)c1cc(Oc2ccc(NC(=O)C(C)(C)C(=O)Nc3ccc(F)cc3)cc2)ccn1 [Compound 13d]" measurementname=IC50 result="> 100 µM"
compound="COc1cc2ncnc(Oc3cccc(C(=O)Nc4ccc(Cl)cc4)c3)c2cc1OC [Compound 11b]" measurementname=IC50 result="9.2 µM"
compound="CC(C)(C)OC(=O)N1CCc2c(sc3ncnc(Oc4cccc(C(=O)Nc5ccc(F)cc5)c4)c23)C1 [Compound 11i]" measurementname=IC50 result="23.2 µM"
